Molecular target: Transcription intermediary factor 1-alpha (Homo sapiens) (UniProt O15164)
Sequence (O15164 whole entry): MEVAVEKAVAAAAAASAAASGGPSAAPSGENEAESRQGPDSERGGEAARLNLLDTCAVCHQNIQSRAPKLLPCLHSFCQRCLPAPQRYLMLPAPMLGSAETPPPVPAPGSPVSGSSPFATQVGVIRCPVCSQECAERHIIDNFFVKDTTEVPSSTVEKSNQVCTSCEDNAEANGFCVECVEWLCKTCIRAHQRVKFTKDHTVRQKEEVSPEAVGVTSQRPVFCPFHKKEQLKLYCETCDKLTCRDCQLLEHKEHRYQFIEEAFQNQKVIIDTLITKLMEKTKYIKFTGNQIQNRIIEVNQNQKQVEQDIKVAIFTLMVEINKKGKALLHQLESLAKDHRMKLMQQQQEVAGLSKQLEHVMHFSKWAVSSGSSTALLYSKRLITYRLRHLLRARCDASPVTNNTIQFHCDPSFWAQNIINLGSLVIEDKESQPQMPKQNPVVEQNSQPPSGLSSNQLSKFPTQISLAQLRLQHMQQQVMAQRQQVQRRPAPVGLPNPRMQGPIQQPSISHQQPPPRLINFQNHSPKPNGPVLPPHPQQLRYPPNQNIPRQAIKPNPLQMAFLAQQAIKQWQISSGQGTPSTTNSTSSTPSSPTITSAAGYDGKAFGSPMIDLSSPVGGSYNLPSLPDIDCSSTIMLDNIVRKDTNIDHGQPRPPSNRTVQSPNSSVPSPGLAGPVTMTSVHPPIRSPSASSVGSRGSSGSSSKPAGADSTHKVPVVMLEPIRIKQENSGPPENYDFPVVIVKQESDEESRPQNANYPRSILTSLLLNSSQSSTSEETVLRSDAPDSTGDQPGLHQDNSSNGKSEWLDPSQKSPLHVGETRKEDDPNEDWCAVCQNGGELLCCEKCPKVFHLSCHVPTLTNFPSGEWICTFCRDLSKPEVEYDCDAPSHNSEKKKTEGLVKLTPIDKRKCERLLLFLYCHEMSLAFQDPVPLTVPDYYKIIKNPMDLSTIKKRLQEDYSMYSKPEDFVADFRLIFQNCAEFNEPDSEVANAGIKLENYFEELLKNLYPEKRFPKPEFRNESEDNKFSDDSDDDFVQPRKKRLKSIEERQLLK
Conditions: Compound concentration 20.0 uM
Residues, ends and D or L forms follow the SMILES beside them. *: point of attachment. Cbz = O=C(OCc1ccccc1)*; CH2F = FC*
Checkbox rule: ΔTm lower than -0.5 °C = true (1); ΔTm not lower than -0.5 °C = false (0).

Is ΔTm strictly under -0.5 °C for the entry CCS(=O)(=O)N1CC(CC#N)(n2cc(-c3ncnc4[nH]ccc34)cn2)C1 ?
true (1)

Is ΔTm strictly under -0.5 °C for the entry CC(C)(C)OC(=O)N1CCN(C(=O)n2cc(-c3ccc(OC(F)(F)F)cc3)nn2)C(Cc2ccccc2)C1 (stereo not given) ?
true (1)

Is ΔTm strictly under -0.5 °C for the entry COC(=O)CC[C@H](NC(=O)[C@H](Cc1c[nH]c2ccccc12)NC(=O)OCc1ccccc1)C(=O)N[C@@H](Cc1cnc[nH]1)C(=O)N[C@@H](CC(=O)OC)C(=O)CF (Cbz-WE(OMe)HD(OMe)-CH2F) ?
true (1)

Is ΔTm strictly under -0.5 °C for the entry Cc1nc2ccccn2c1C(=O)CN1CCN(c2ccc(F)cn2)CC1 ?
false (0)

Is ΔTm strictly under -0.5 °C for the entry Cc1cccc(Nc2ccncc2S(=O)(=O)NC(=O)NC(C)C)c1 ?
false (0)
